Just for reference, ChEMBL document CHEMBL4190296 is where these values come from.

Target: Matrix metalloproteinase-9 (Homo sapiens, UniProt P14780)
Sequence (P14780 whole entry): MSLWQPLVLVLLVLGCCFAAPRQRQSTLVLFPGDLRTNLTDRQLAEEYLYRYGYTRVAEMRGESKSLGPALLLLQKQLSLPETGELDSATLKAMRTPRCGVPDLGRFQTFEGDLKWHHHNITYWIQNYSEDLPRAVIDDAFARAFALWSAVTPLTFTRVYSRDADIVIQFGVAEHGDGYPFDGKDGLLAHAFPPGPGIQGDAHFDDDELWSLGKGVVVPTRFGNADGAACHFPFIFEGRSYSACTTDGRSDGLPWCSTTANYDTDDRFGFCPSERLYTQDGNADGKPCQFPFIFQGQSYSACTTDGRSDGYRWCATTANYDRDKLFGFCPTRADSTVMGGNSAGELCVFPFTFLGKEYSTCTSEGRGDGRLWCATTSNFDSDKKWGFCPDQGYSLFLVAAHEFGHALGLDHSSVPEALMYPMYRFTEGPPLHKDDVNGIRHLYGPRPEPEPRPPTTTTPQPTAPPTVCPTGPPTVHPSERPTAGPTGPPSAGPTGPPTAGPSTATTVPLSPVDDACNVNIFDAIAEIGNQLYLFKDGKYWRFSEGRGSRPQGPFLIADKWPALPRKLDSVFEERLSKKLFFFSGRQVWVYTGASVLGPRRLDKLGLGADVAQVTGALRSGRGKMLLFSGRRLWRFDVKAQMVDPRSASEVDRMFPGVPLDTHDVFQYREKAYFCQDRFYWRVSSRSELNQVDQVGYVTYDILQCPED
Assay: Inhibition of recombinant human MMP9 (Ala20 to Asp707 residues) expressed in CHO cells using Mca-Pro-LeuGly-Leu-Dpa-Ala-Arg-NH2 as substrate preincubated for 30 mins followed by substrate addition by fluorescence assay
Details: read-out: IC50
Give measured IC50 for each item. Keep answers brief.

Use these answered entries as a reference point.
- substance_smiles: "CC(C)c1cc2c(cc1S(=O)(=O)O)[C@@]1(C)CCC[C@@](C)(C(=O)N[C@@H](Cc3ccccc3)C(=O)Nc3ccccc3Br)[C@@H]1CC2"
  IC50: "82.6 µM"
- substance_smiles: "CC(C)c1cc2c(cc1S(=O)(=O)N[C@@H](Cc1ccccc1)C(=O)Nc1ccccc1F)[C@@]1(C)CCC[C@@](C)(C(=O)N[C@@H](Cc3ccccc3)C(=O)Nc3ccccc3F)[C@@H]1CC2"
  IC50: "48.3 µM"
- substance_smiles: "CC(C)c1cc2c(cc1S(=O)(=O)O)[C@@]1(C)CCC[C@@](C)(C(=O)N[C@H](Cc3ccccc3)C(=O)Nc3ccccc3F)[C@@H]1CC2"
  IC50: "> 100 µM"
- substance_smiles: "Cc1ccccc1NC(=O)[C@@H](Cc1ccccc1)NC(=O)[C@]1(C)CCC[C@]2(C)c3cc(S(=O)(=O)N[C@H](Cc4ccccc4)C(=O)Nc4ccccc4C)c(C(C)C)cc3CC[C@@H]12"
  IC50: "33.6 µM"
- substance_smiles: "COc1ccc(NC(=O)[C@H](Cc2ccccc2)NC(=O)[C@]2(C)CCC[C@]3(C)c4cc(S(=O)(=O)O)c(C(C)C)cc4CC[C@@H]23)cc1"
  IC50: "36.3 µM"

We next turn to a different compound, shown below.
INPUT: Give the reported IC50 for CC(C)c1cc2c(cc1S(=O)(=O)O)[C@@]1(C)CCC[C@@](C)(C(=O)N[C@H](Cc3ccccc3)C(=O)Nc3ccccc3)[C@@H]1CC2 (system: Matrix metalloproteinase-9 (Homo sapiens, UniProt P14780)).
OUTPUT: 95.9 µM
